- TGT: S#066: VL-L2-VH CAR-T
- TEST METHOD NOTES: flow cytometry on CAR-T cells; PE-labeled secondary antibody; PE-positive cells / total cells
METRIC: Reactivity (%)
Give bare numbers, in %.

Looking for the measured Reactivity (%) of 4B9-B11 (antibody, V domains shown) VH: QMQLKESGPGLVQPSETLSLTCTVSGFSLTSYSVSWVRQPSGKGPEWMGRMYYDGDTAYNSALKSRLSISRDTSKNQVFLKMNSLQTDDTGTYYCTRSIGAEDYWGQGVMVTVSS VL: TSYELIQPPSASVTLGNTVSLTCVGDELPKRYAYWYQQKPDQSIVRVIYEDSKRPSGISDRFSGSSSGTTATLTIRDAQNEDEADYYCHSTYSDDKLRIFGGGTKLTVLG , can you help? 0.1
